Source listed as patent US20230303719.

biological target: 3E10-D31N (chimeric, murine VH/VL); experiment: BLI; 1:1 model; antibody on AHC2 sensor; ka 2.29E5, kdis 4.76E-4; settings: tags: human Fc IgG; chain copies: 2 heavy + 2 light (inferred); hairpin
VALUE_KIND: Kd (nM)
Give the number; nM is assumed, so skip it.

Input line: What does the data say about its Kd? Entry: 3p-hpRNA RIG-I agonist (89 nt) (ssRNA, 5'-triphosphate) RNA: GGAGCAAAAGCAGGGUGACAAAGACAUAAUGGAUCCAAACACUGUGUCAAGCUUUCAGGUAGAUUGCUUUCUUUGGCAUGUCCGCAAAC
Output line: 2.08
